Test: Maximum tolerated oral dose without blood-pressure-lowering effect
Type: in vivo
Conditions: Slc:Wistar, rat, in vivo, read-out: maximum tolerated dose that does not show blood-pressure-lowering effect
READOUT_LABEL: MTD (mg/kg)
All answers are understood in mg/kg, so give the number only.

# input compound: CC#CC[C@@H](C)[C@H](O)/C=C/[C@@H]1[C@H]2c3cccc(CCCC(=O)[O-])c3O[C@H]2C[C@H]1O.[Na+] (racemic) ; wanted: its MTD
0.1
